Data provenance: ChEMBL document CHEMBL5126673

Molecular target: Amyloid-beta precursor protein (Homo sapiens, UniProt P05067)
Sequence (P05067 whole entry): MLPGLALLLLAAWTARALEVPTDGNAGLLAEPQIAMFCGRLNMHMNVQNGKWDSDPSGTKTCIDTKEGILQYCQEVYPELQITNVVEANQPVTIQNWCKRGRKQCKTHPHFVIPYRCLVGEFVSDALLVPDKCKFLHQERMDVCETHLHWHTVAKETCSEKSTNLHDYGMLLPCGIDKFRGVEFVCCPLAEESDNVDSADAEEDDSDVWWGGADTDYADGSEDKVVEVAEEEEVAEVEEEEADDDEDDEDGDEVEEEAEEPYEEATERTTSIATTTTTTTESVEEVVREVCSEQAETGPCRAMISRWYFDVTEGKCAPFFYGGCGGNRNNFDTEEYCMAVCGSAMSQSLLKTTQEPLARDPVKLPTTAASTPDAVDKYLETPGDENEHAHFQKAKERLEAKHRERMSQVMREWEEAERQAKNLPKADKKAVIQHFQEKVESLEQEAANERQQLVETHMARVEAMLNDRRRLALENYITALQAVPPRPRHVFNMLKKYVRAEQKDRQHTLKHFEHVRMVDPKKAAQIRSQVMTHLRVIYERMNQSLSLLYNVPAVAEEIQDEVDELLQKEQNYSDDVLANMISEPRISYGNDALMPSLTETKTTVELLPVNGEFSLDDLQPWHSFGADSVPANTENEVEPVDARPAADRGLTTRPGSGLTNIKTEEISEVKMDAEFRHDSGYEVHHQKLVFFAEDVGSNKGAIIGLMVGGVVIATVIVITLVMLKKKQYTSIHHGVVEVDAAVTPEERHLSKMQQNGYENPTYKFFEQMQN
Experiment: Inhibition of HFIP-pretreated amyloid beta (1 to 42) (unknown origin) self aggregation after 24 hrs by thioflavin-T fluorescence method

[
  {
    "smilesInput": "CCCSC(=O)/C=C/c1ccc(O)c(O)c1",
    "measurementUnit": "µM",
    "IC50": 3.99
  }
]
